Some compounds, each annotated with its measured growth inhibition.
assay: NCI Yeast Anticancer Drug Screen. Data for the sgs1 mgt1 strain (AID 161);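 further: 0% = growth of cultures given vehicle only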; settings: S. cerevisiae sgs1 mgt1 strain, at 50.0 µM, stronger effect = higher value
Compounds without any hit were thinned out: in the full panel of roughly 79,000, 15% have a hit.
Report the figure in % without appending any unit label.

Consider the worked cases shown below.
COMPOUND | READOUT | NUMERIC_RESULT
CCCCN(CCCC)CC(O)c1cc(-c2cc(C(O)CN(CCCC)CCCC)c3ccccc3n2)nc2ccccc12 (configuration not stated) | growth inhibition | 46.1
c1ccc(NCNC2Nc3ccccc3N2)cc1 | growth inhibition | 12.3
Cc1c(N)cc2c(c1N)C(C)(C)CC2(C)C | growth inhibition | -0.4

Let me know recorded growth inhibition for CC(O)(C1CC1)C(C(=O)O)c1ccccc1 (configuration not stated) , thanks.
1.9

Complete the entry with growth inhibition for O=C(O)C(CO)N=Cc1nc(-c2ccccc2)oc1O (configuration not stated)
12.4

Consider the compound CS(=O)(=O)C1CCCCC1SC#N (configuration not stated) . State its measured growth inhibition.
-14.5

Supply measured growth inhibition of CC1(C)NC(=O)N(CCCCCCN2C(=O)NC(C)(C)C2=O)C1=O in your reply.
5.85

Please report growth inhibition for the following compound: CCC1(C)N=C(N)Nc2nc3ccccc3n21 (configuration not stated)
-7.65

Answer with reported growth inhibition of C=C1c2c(cc3c(c2O)c(=O)c2ccccc2n3C)OC1(C)C
-23.1

State, in one line, measured growth inhibition of COC(=O)N/C(C)=N/OCc1ccccc1
4.3

Please supply the value of reported growth inhibition for the item CC12CCC(Cl)(CC1O)C2(C)C (configuration not stated)
1.15

Look up growth inhibition of O=C(CCc1ccc(O)c(O)c1)NCCc1cc(O)cc(O)c1 and report it.
-26.8

* * *

Measured growth inhibition of individual entries
test: NCI Yeast Anticancer Drug Screen. Data for the cln2 rad14 strain (AID 165);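 further: 0% = growth equal to vehicle treated cultures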; settings: S. cerevisiae cln2 rad14 strain, at 50.0 µM, stronger effect = higher value
This is part of a sample that, as a whole, favours compounds with a hit. Of some 79,000 tested, about 15% had one in any assay.
Quick reminder: number only, in %, skip the unit.

Check out these entries, answers already filled in.
COMPOUND | growth inhibition [%]
CCOC(=O)c1oc2ccc([N+](=O)[O-])c3c2c1CCC3 | -2.35
CCOc1ccccc1C1=CCCCCC1 | -24.6
Fc1ccc(-c2nnc(-c3ccccc3)o2)cc1 | 7.2
O=S(=O)(c1ccccc1)N1CCCN(S(=O)(=O)c2ccccc2)CC1 | 3.1
O=C(Nn1cnc2ccccc2c1=O)c1ccc(NC(=S)Nc2ccccc2)cc1 | -27.8
O=[N+]([O-])c1ccccc1S(=O)(=O)c1cc(Cl)cc2c1NCCC2 | 9.15
COC(=O)c1ccc(C[P+](c2ccccc2)(c2ccccc2)c2ccccc2)cc1 | 40.2
CCN(CC)c1ncnc2c1cnn2C | 11
CCCCCCCCCCCCCC(=O)OCC1OC(n2cc(F)c(=O)[nH]c2=O)C(N)C(OC(=O)CCCCCCCCCCCCC)C1O (stereo unspecified) | 35.3
OC/C(Cc1cccc(O)c1)=C(/CO)Cc1cccc(O)c1 | 3.45

Next, consider the following compound.
Quick one: give measured growth inhibition for O=C=Nc1ccccc1[N+](=O)[O-]
-65.5
